# Tested on: Staphylococcus aureus ATCC 29213
# test-protocol: Antibacterial susceptibility testing, IC90 determination (STA)
# Assay type: cell-based
# run-conditions: Staphylococcus aureus, ATCC29213, Staphylococcus aureus ATCC 29213, broth microdilution, resazurin; read-out: STA (361.159) IC90
Some compounds, each annotated with its measured log10 of IC90.
Please note: log10 values; quantity IC90; unit µg/mL.

Example results:
{"compound": "O=C1Nc2ncc(/C=C/C(=O)N3CC4C=C(c5ccsc5)CC4C3)cc2CO1 (stereo not shown)", "log10 of IC90": -0.80}
{"compound": "O=C1COCc2cc(/C=C/C(=O)N3CC4C=C(c5nccs5)CC4C3)cnc2N1 (stereo not shown)", "log10 of IC90": -0.60}
{"compound": "Cc1cncc(C(=O)Nc2ccc(/C=C/C(=O)N3CC4C=C(c5ccnn5C)CC4C3)cn2)c1 (stereo not shown)", "log10 of IC90": 0.10}
{"compound": "O=C(Nc1ccc(/C=C/C(=O)N2CC3C=C(c4ccccc4)CC3C2)cn1)c1cccnc1 (stereo not shown)", "log10 of IC90": -0.68}
{"compound": "O=C(Nc1ccc(/C=C/C(=O)N2CC3C=C(c4ccccc4)CC3C2)cn1)c1ccoc1 (stereo not shown)", "log10 of IC90": -0.68}

Which log10 of IC90 is reported for this compound? Cc1cc(C(=O)Nc2ccc(/C=C/C(=O)N3CC4C=C(c5ccccc5)CC4C3)cn2)c(C)o1 (stereo not shown)
0.21

Please answer likewise for `COc1ccccc1N1C[C@H]2CN(C(=O)/C=C/c3cnc4c(c3)CN(C)CC(=O)N4)C[C@H]2C1`
0.53

Same again, this time with O=C1Nc2ncc(/C=C/C(=O)N3CC4C=C(c5ccccc5)CC4C3)cc2C(=O)N2CCOCC12 (stereo not shown)
-0.60

Input O=C1Nc2ncc(/C=C/C(=O)N3CC4C=C(c5ccccc5)CC4C3)cc2CN2CCSCC12 (stereo not shown)
-0.59

Please do the same for COc1cncc(C(=O)Nc2ccc(/C=C/C(=O)N3CC4C=C(c5ccnn5C)CC4C3)cn2)c1 (stereo not shown) as well.
-0.14

Would you mind doing O=C1Nc2ncc(/C=C/C(=O)N3CC4C=C(c5ccccc5)CC4C3)cc2CN2CCNCC12 (stereo not shown) as well?
-0.44

Similarly, O=C1CNCc2cc(/C=C/C(=O)N3CC4C=C(c5ccncc5)CC4C3)cnc2N1 (stereo not shown) ?
-0.43

Ok, now O=C1Nc2ncc(/C=C/C(=O)N3CC4C=C(c5ccncc5)CC4C3)cc2CN2CCOCC12 (stereo not shown)
-0.38

# repeat for Cc1cncc(C(=O)Nc2ccc(/C=C/C(=O)N3CC4C=C(c5ccccc5)CC4C3)cn2)c1 (stereo not shown)
-0.77

Please give the result for O=C(Cc1ccncc1)Nc1ccc(/C=C/C(=O)N2CC3C=C(c4ccncc4)CC3C2)cn1 (stereo not shown) too.
0.12

Please do the same for O=C1CNC(=O)c2cc(/C=C/C(=O)N3CC4C=C(c5ccccc5)CC4C3)cnc2N1 (stereo not shown) as well.
-0.12

Repeat with Nc1ccc(/C=C/C(=O)N2CC3C=C(c4ccccc4)CC3C2)cn1 (stereo not shown)
0.09

Also, `CN1CC(=O)Nc2ncc(/C=C/C(=O)N3C[C@@H]4CN(c5ccccc5)C[C@@H]4C3)cc2C1` please.
0.53
